Tested on: neutrophils
Procedure Text: Neutrophil calcium flux assay (5-OXO-ETE-stimulated, Indo-1 fluorescence)
Type: cell-based
Protocol Conditions: Neutrophil, 5-OXO-ETE-stimulated calcium flux
pIC50: −log10 of the molar value.
pIC50 for assorted compounds

# example entries with known answers
Cn1c(CCCOCCc2cccc(Cl)c2)c(C(=O)N2CC[C@H](C(=O)O)C2)c2cc(Cl)cnc21; < 6.52
Cn1c(CCCCCCC#CC2CC(F)(F)C2)c(C(=O)N2CC[C@@H](C(=O)O)C2)c2cc(C#N)cnc21; < 6.52
COc1nccc(COCCCCc2c(C(=O)CC(C)CC(=O)O)c3cc(Cl)cnc3n2C)n1 (stereo not shown); < 6.52
C[C@@H](CC(=O)O)CC(=O)c1c(CCCCCCC#CC2COC2)n(C)c2ccc(Cl)cc12; < 6.52
COC(=O)NCCCCCc1c(C(=O)CC(C)CC(=O)O)c2cc(Cl)ccc2n1C (stereo not shown); < 6.52

Qu. Consider the compound shown here: C[C@H](CC(=O)O)CC(=O)c1c(CCCCOCc2cccc(Cl)c2)n(C)c2ncc(C(F)(F)F)cc12 What is its recorded pIC50?
Ans. > 7.00

Qu. Also check C[C@H](CC(=O)O)CC(=O)c1c(CCCCOCc2cccc(Cl)c2)n(C)c2cnccc12
Ans. > 7.00

Every entry's value here was drawn from patent US20250154145A1.
